biological target: Casein kinase II (Homo sapiens, UniProt P19784+P67870+P68400); test: Inhibition of CK2
Sequence (P67870 whole entry): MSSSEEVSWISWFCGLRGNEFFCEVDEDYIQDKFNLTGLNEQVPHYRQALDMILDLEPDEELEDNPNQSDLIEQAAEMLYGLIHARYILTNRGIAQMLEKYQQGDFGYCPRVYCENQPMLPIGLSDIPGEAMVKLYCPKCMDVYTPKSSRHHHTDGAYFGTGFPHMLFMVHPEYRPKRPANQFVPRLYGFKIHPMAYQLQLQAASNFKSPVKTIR
Sequence (P68400 whole entry): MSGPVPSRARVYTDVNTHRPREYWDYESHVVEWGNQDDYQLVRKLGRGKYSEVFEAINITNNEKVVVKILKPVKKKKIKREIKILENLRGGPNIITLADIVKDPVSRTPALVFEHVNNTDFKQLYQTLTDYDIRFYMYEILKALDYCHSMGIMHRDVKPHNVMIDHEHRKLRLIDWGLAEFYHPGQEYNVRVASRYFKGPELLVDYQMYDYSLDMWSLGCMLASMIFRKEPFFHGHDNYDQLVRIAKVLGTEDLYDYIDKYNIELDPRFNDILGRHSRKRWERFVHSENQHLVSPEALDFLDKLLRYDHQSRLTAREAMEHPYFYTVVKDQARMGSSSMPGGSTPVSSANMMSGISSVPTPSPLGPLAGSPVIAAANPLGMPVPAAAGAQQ
Sequence (P19784 whole entry): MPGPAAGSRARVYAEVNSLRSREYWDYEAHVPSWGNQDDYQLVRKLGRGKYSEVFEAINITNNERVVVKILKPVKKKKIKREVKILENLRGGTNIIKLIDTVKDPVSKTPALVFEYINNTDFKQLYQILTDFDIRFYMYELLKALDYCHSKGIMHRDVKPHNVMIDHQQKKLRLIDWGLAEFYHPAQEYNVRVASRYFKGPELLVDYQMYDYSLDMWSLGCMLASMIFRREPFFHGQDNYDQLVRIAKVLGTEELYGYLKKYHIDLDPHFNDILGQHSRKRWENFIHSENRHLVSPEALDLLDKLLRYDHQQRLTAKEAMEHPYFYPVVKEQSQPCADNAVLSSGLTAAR
parameter: pIC50
One number for each entry, as −log10 of the molar value.

Record excerpt, results attached:
| molecule | pIC50 |
| --- | --- |
| CSc1nc2c(Br)c(Br)c(Br)c(Br)c2n1C | 6.22 |
| Cn1c(=O)[nH]c2c(Br)c(Br)c(Br)c(Br)c21 | 6.41 |
| O=c1[nH]c2c(Br)c(Br)c(Br)c(Br)c2[nH]1 | 6.44 |
| CSc1nc2c(Br)c(Br)c(Br)c(Br)c2[nH]1 | 6.60 |
| Brc1nc2c(Br)c(Br)c(Br)c(Br)c2[nH]1 | 6.13 |

Dear colleague, could you please provide pIC50 for the molecules listed below?
1. OCC(O)CSc1nc2c(Br)c(Br)c(Br)c(Br)c2[nH]1 (configuration not stated)
2. CN(C)c1nc2c(Br)c(Br)c(Br)c(Br)c2n1C
3. O=C(O)CSc1nc2c(Br)c(Br)c(Br)c(Br)c2[nH]1

Out:
6.82
6.89
6.60

---

biological target: UniProt:Q15418
Sequence (Q15418 whole entry): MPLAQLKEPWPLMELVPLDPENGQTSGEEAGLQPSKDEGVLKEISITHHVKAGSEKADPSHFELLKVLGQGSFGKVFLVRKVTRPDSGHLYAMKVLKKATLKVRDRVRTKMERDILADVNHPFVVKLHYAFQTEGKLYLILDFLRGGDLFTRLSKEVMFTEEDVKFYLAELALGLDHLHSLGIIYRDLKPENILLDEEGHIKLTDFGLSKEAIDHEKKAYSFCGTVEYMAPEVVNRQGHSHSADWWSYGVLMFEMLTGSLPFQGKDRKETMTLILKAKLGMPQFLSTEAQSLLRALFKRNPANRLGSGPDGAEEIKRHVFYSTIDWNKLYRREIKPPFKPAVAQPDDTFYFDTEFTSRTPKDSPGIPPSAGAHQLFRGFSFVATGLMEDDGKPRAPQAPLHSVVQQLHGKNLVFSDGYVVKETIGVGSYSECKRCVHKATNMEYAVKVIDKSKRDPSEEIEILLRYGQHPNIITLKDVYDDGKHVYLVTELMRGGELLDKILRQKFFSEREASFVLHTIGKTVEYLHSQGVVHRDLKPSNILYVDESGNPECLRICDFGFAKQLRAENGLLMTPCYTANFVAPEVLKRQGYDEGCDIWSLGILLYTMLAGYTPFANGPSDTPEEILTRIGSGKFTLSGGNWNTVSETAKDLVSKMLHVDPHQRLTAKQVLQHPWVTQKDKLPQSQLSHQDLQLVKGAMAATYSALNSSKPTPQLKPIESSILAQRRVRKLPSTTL
parameter: pIC50
One number for each entry, as −log10 of the molar value.

In: Consider the compound CN(C)c1nc2c(Br)c(Br)c(Br)c(Br)c2[nH]1 and give its measured pIC50.
Out: 4.99

---

Please provide measured pKi for the entries that follow.
target: Casein kinase II (Homo sapiens, UniProt P19784+P67870+P68400); test: Inhibition of CK2
One number for each entry, as −log10 of the molar value.

Record excerpt, results attached:
| smiles-string | reading |
| --- | --- |
| CSc1nc2c(Br)c(Br)c(Br)c(Br)c2n1C | 6.44 |
| CN(C)CCNc1nc2c(Br)c(Br)c(Br)c(Br)c2[nH]1 | 6.80 |
| OCCNc1nc2c(Br)c(Br)c(Br)c(Br)c2[nH]1 | 6.89 |
| Nc1nc2c(Br)c(Br)c(Br)c(Br)c2[nH]1 | 7.05 |
| Cn1c(=O)[nH]c2c(Br)c(Br)c(Br)c(Br)c21 | 6.70 |

// next item, pKi requested
In: Consider the compound CSc1nc2c(Br)c(Br)c(Br)c(Br)c2[nH]1 and give its measured pKi.
Out: 7.15

---

Target: Serine/threonine-protein kinase Sgk1 (Homo sapiens, UniProt O00141)
Sequence (O00141 whole entry): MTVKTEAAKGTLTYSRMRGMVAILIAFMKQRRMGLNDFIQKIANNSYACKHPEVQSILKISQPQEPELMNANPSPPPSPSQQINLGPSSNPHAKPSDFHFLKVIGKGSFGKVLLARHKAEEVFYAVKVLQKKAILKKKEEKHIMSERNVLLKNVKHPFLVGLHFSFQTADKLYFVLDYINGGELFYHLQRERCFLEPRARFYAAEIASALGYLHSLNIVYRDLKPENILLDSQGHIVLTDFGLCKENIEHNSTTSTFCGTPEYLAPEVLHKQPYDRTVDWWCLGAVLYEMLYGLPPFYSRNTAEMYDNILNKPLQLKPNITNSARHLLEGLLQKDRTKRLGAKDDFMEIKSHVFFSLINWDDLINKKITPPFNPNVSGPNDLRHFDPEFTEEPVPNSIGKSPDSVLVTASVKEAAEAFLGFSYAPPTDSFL
parameter: pIC50
One number for each entry, as −log10 of the molar value.

In: API: value(readout=pIC50, system=Serine/threonine-protein kinase Sgk1 (Homo sapiens, UniProt O00141)) for record CN(C)c1nc2c(Br)c(Br)c(Br)c(Br)c2[nH]1
Out: 5.45
